The measurements presented in this section are drawn from patent US9187525B2.

Molecular target: T1, natriuretic peptide receptor-B (human)
T1 chain: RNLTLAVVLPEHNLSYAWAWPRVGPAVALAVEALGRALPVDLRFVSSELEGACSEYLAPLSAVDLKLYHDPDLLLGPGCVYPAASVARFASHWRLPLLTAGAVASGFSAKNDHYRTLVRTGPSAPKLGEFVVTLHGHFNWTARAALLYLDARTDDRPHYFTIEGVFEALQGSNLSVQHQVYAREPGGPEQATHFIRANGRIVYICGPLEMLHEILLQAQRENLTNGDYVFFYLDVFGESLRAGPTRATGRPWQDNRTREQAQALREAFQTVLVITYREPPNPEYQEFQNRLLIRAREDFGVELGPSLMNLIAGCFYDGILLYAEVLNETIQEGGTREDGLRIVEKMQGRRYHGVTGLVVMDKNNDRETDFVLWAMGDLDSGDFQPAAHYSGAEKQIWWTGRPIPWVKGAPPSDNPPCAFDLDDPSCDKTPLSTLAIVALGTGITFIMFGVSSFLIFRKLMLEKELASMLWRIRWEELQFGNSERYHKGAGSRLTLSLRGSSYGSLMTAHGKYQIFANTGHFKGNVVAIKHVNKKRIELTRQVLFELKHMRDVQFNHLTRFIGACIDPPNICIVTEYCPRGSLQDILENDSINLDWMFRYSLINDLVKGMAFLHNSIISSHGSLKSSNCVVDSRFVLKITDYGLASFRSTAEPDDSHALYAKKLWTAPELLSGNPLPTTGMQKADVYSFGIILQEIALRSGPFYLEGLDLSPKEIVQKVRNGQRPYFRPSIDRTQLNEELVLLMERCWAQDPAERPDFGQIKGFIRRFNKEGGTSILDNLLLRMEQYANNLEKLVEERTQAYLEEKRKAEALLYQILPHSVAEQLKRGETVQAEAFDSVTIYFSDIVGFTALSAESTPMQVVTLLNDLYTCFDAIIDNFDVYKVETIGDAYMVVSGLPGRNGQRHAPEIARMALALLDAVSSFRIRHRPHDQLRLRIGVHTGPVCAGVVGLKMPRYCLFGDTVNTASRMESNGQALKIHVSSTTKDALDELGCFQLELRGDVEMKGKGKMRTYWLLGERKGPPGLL
Experiment: cell-based or functional assay
Numbered stars: 1 amine (or outer) side, 2 acyl side, 3 side chain; on linkers, the order of the positions; unused ones are H or OH. Square brackets hold non-standard residues; d marks the D form. Ends that are not written are not given here. * marks the point of attachment. Tap(2Me) = (2S,4R)-4-(dimethylamino)pyrrolidine-2-carboxylic acid, CN(C)[C@@H]1C[C@@H](C(=O)[*:2])N([*:1])C1; Bhp = (2S,4R)-4-(benzyloxy)pyrrolidine-2-carboxylic acid, O=C([C@@H]1C[C@@H](OCc2ccccc2)CN1[*:1])[*:2]; Sni = (S)-nipecotic acid, O=C([C@H]1CCCN([*:1])C1)[*:2]; Hyp = O=C(O)[C@@H]1C[C@@H](O)CN1; AR‑314‑169 = not defined here; NMeL = CN[C@@H](CC(C)C)C(=O)O; Octanoyl = CCCCCCCC(=O)*; leu = not defined here
reported-property: EC50 group, cGMP in GTM-3 cells

{"columns": ["binder", "reported-property", "result"],
 "data": [
  ["Octanoyl-[dA]FGL[Bhp]LDRI-NH2 [JAL-1038]", "EC50 group, cGMP in GTM-3 cells", "≤ 15 µM"]
]}

Q: If you can, please state the reported EC50 group, cGMP in GTM-3 cells value of Octanoyl-[Sni]F[dL]L[Hyp][NMeL]DRI-NH2 [JAL-1041] .
Ans: ≤ 1 µM

Q: Given the entry [AR‑314‑169]F[leu]L[Hyp][NMeL]DRI-NH2 (reading uncertain; also: printed as (AR-314-169)-Phe-leu-Leu-Hyp-Nml-Asp-Arg-Ile-NH2) [JAL-1868-2] , report its measured EC50 group, cGMP in GTM-3 cells.
Ans: ≤ 5 µM

Q: Give its EC50 group, cGMP in GTM-3 cells value. Item: Octanoyl-AFLL[Tap(2Me)]LDRI-NH2 (not fully specified (some residues); printed as Occ-ala-Phe-leu-Leu-Tap(2Me)-Leu-Asp-Arg-Ile-NH2) [JAL-1264]
Ans: ≤ 5 µM

Q: What value of EC50 group, cGMP in GTM-3 cells has been recorded for this entry: Octanoyl-[Sni]F[dL]L[Hyp][NMeL]VRI-NH2 [JAL-1398]
Ans: ≤ 1 µM

Q: What value of EC50 group, cGMP in GTM-3 cells has been recorded for this entry: Octanoyl-AFRL[Hyp]IDRI-NH2 (not fully specified (some residues); printed as Occ-ala-Phe-arg-Leu-Hyp-Ile-Asp-Arg-Ile-NH2) [JAL-1224]
Ans: ≤ 5 µM
